Give pKd for every item shown.
Molecular target: Clade B BaL gp120 protein (HIV-1 Clade B, BaL)
Test: BLI (Octet), IgG on anti-hIgG Fc sensor, gp120 analyte, 1:1 fit
Would you please state pKd, meaning minus log10 of the concentration in mol/L, as a bare number?

pKd reading for Germ18 (antibody, V domains shown) VH: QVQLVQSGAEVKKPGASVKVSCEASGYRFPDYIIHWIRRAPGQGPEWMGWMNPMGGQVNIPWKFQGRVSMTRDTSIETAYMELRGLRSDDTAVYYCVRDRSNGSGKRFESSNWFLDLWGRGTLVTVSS VL: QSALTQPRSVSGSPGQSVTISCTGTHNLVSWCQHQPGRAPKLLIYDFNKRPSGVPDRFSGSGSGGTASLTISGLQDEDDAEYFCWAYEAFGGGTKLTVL : 9.01

pKd reading for NglycoNDplus6 (antibody, V domains shown) VH: ADLVQSGAVVKKPGDSVRISCEAQGYTFPDYIIHWIRRAPGQGPEWMGWMNPMGGQVNIPWKFQGRVSMTRDTSIETAFLDLRGLKSDDTAVYYCVRDRGDGSRRHFDSSNWFLDLWGRGTAVTIQS VL: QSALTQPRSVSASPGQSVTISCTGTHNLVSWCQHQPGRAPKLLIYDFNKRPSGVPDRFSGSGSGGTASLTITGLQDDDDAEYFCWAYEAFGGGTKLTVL : 7.95
